Hi there, I'd appreciate the recorded GI50 for every entry that follows.
System: COLO 205
Assay: NCI tumour cell line growth inhibition, 48 h
Calls of active or inactive are those of the source. Rule as the data show it: active = GI50 up to about 1.1 µM and inactive = higher.

Record for "CCOC(=O)C(=O)Nc1ccc(Cl)c(C(F)(F)F)c1" under target or system COLO 205: GI50 reported as > 100 µM (inactive)

Record for "NNc1nncc2[nH]cnc12" under target or system COLO 205: GI50 reported as > 100 µM (inactive)

Record for "O=c1[nH]n(Cc2ccccc2CCl)c2ccc([N+](=O)[O-])cc12" under target or system COLO 205: GI50 reported as 26.1 µM (inactive)

Record for "O=C1Nc2ccccc2/C1=c1\[nH]c(=O)/c(=C\c2ccc(OCc3ccccc3)cn2)[nH]c1=O" under target or system COLO 205: GI50 reported as > 100 µM (inactive)

Record for c1ccc2c(c1)C1CCCCCC21N1CCOCC1 (stereo unspecified) under target or system COLO 205: GI50 reported as > 100 µM (inactive)

Record for C[C@]12CC[C@H](O)CC1=CC[C@@H]1C2CC[C@]2(C)c3n[nH]nc3CC12 (stereo partly specified) under target or system COLO 205: GI50 reported as > 100 µM (inactive)

----------
System: IGROV-1
Assay: NCI tumour cell line growth inhibition, 48 h
Activity calls are given as the source filed them. Rule as the data show it: active = GI50 up to about 1.1 µM and inactive = higher.
Respond with a class label; see Y (active), N (inactive)

Returns: the outcome recorded for C=C1C(O)C2(O)OCC34C(CC5C(C)=CC(=O)C(O)C5(C)C23)OC(=O)C(OC(=O)C/C=C/CCCCCCCC)C14 (centres undefined) in this assay.
Y

Returns: the outcome recorded for "Cc1c(C)c(S(=O)(=O)N(CCCCCON)OCCCN)c(C)c2c1OC(C)(C)CC2" in this assay.
N

Returns: the outcome recorded for CCOC(=O)C1(Br)C(c2ccccc2)NC(=O)N(C2OC(COC(=O)c3ccccc3)C(OC(=O)c3ccccc3)C2OC(=O)c2ccccc2)C1(C)Br (centres undefined) in this assay.
N

Returns: the outcome recorded for "COn1cc(C=O)c2ccccc21" in this assay.
N

Returns: the outcome recorded for "O=C1NC(=S)NC(=O)C1C(c1ccc(O)cc1)C1C(=O)NC(=S)NC1=O.c1ccncc1" in this assay.
N

Returns: the outcome recorded for "O=S(=O)(O)c1cc(/N=N/c2cc(S(=O)(=O)O)c3cccnc3c2O)ccc1/C=C/c1ccc(/N=N/c2cc(S(=O)(=O)O)c3cccnc3c2O)cc1S(=O)(=O)O" in this assay.
N

Returns: the outcome recorded for CCOc1ccc2nc(NC(=O)C(=O)C(c3cnc4ccccc4n3)[N+](=O)[O-])sc2c1 (centres undefined) in this assay.
N

Returns: the outcome recorded for CCOC(=O)C1C(=O)c2ccccc2CN1Cc1ccccc1 (centres undefined) in this assay.
N

Returns: the outcome recorded for "O=c1[nH]n(Cc2ccccc2CCl)c2ccc([N+](=O)[O-])cc12" in this assay.
N

----------
System: SF-268
Assay: NCI tumour cell line growth inhibition, 48 h
Calls of active or inactive are those of the source. Rule as the data show it: active = GI50 up to about 1.1 µM and inactive = higher.
measuredQuantity: GI50

Kindly note the recorded GI50 for "C=C1C(=O)O[C@H]2[C@@H](O)[C@H](C)CCC/C(C)=C/CC[C@@]3(C)O[C@@H]3C[C@@H]12" , which is 8.22 µM (inactive)

Kindly note the recorded GI50 for "CC(=O)O[C@H]1CC[C@@]2(C)C(=CC[C@@H]3[C@@H]2CC[C@]2(C)c4nc(Cl)ccc4C[C@@H]32)C1" , which is 49.8 µM (inactive)

Kindly note the recorded GI50 for C/C(CC(O)(/C=N/O)c1ccccc1)=N/O (stereo not given) , which is > 100 µM (inactive)

Kindly note the recorded GI50 for CCOC(=O)/C=C1\Nc2ccccc2C12CCc1c([nH]c3ccccc13)C2C(=O)OCC (stereo not given) , which is 30.1 µM (inactive)

Kindly note the recorded GI50 for C=C[C@]1(C)CCC2=C(CCC3C2(C)CCC[C@@]3(C)COC(C)=O)C1 (stereo not given in full) , which is 23.4 µM (inactive)

Kindly note the recorded GI50 for "Oc1cc(-c2ccc(Cl)cc2)nc2ncccc12" , which is 53.2 µM (inactive)

Kindly note the recorded GI50 for "C=C(C)[C@@]1(O)CCC[C@H]1NC(=O)OC(C)(C)C" , which is > 100 µM (inactive)

Kindly note the recorded GI50 for "Cc1cc(C)nc(NC(P(=O)(O)O)P(=O)(O)O)n1" , which is > 100 µM (inactive)

Kindly note the recorded GI50 for "Sc1ccc2ccccc2c1CNCc1ccccc1" , which is 8.47 µM (inactive)

Kindly note the recorded GI50 for "O=CN1CCN(C(=O)c2cc(Cl)cc(Cl)c2)C1=S" , which is 16.1 µM (inactive)

----------
Tested on: UACC-257
Assay: NCI tumour cell line growth inhibition, 48 h
The source made the active and inactive calls. Cut-off read from the data, not from the text of the source: active = GI50 up to about 1.1 µM and inactive = higher. Where a SMILES comes first, the peptide text is derived from it. The star is where a group is joined. Boc = CC(C)(C)OC(=O)*; OBn = c1ccc(CO*)cc1
measuredQuantity: GI50

Kindly note the recorded GI50 for CC12CCC(=O)C=C1CCC1C2C(O)CC2(C)C(c3csc(N)n3)CCC12.O=S(=O)(O)c1ccc(Br)cc1 (configuration not stated) , which is > 100 µM (inactive)

Kindly note the recorded GI50 for "CC(=O)Nc1ccc(/C=C/C(=O)c2sc(-n3nc(-c4ccccc4)cc3-c3ccccc3)nc2C)cc1" , which is 80.9 µM (inactive)

Kindly note the recorded GI50 for COC(=O)CN(CC1O[C@@H]2OC(C)(C)O[C@@H]2C1N=[N+]=[N-])C(=O)OCc1ccccc1 (some centres not stated) , which is > 100 µM (inactive)

Kindly note the recorded GI50 for "CC1=C(C(=O)Nc2ccc(C)cc2)C(c2cccc([N+](=O)[O-])c2)C(C(=O)Nc2ccc(C)cc2)=C(C)N1" , which is 21.2 µM (inactive)

Kindly note the recorded GI50 for CCOC(=O)/C=C1\Nc2ccccc2C12CCc1c([nH]c3ccccc13)C2C(=O)OCC (configuration not stated) , which is 24 µM (inactive)

Kindly note the recorded GI50 for "COc1ccc(OC)c(-c2cc(O)c3cc4c(cc3n2)OCO4)c1" , which is 7.69 µM (inactive)

Kindly note the recorded GI50 for COc1cc(C2=NN(C)C(c3ccc([N+](=O)[O-])o3)C2)cc(OC)c1OC (configuration not stated) , which is > 100 µM (inactive)

Kindly note the recorded GI50 for "Cn1nc(-c2ccccc2)c2c(/C=C/c3ccccc3)onc2c1=O" , which is > 100 µM (inactive)

Kindly note the recorded GI50 for "N/N=C(\N)Nc1cccc2ccccc12" , which is > 100 µM (inactive)

Kindly note the recorded GI50 for "C=C1CN=C(Nc2ccc(F)cc2F)S1" , which is > 100 µM (inactive)

Kindly note the recorded GI50 for CCOc1ccc2nc(NC(=O)C(=O)C(c3cnc4ccccc4n3)[N+](=O)[O-])sc2c1 (configuration not stated) , which is > 100 µM (inactive)

Kindly note the recorded GI50 for "O=C(CSc1nnc(SCC(=O)NN=C2CCCCC2)s1)NN=C1CCCCC1" , which is > 100 µM (inactive)

Kindly note the recorded GI50 for Cc1ccc2c(c1C)CC1(Cc3ccc(C)c(C)c3C1=O)C2=O (configuration not stated) , which is > 100 µM (inactive)

Kindly note the recorded GI50 for "Cn1c(=O)nc2n(-c3cc(C(F)(F)F)cc(C(F)(F)F)c3)c3ccccc3nc-2c1=O" , which is > 100 µM (inactive)

Kindly note the recorded GI50 for "COC(=O)[C@@](NC(=O)OCc1ccccc1)([C@H](C)O)C(F)(F)F" , which is > 100 µM (inactive)

Kindly note the recorded GI50 for O=P(Nc1ccc(Cl)cc1)(Oc1ccccc1)N(CCCl)CCCl (configuration not stated) , which is > 100 µM (inactive)

Kindly note the recorded GI50 for "COc1cc(C)c(C)c(OC(=O)c2c(C)c(C)c(OC)c(C)c2OC)c1C" , which is 17.8 µM (inactive)

Kindly note the recorded GI50 for "O=S(O)CCCCCSSc1ccccc1" , which is 39 µM (inactive)

Kindly note the recorded GI50 for "O=C(O)/C(Cl)=C(\Cl)C(=O)Nc1ccccc1" , which is > 100 µM (inactive)

Kindly note the recorded GI50 for "Cc1nn(C)cc1P(=S)(c1ccccc1)c1ccccc1" , which is 97.1 µM (inactive)

Kindly note the recorded GI50 for "CC(C)OP(=O)(OC(C)C)/C(=N/Nc1ccc([N+](=O)[O-])cc1)NCCN/C(=N\Nc1ccc([N+](=O)[O-])cc1)P(=O)(OC(C)C)OC(C)C" , which is 6.61 µM (inactive)

Kindly note the recorded GI50 for "COc1ccc(CNc2nc3ccccc3nc2C(=O)O)cc1" , which is > 100 µM (inactive)

Kindly note the recorded GI50 for O=P(O)(O)OC1O[C@H](CO)[C@H](O)[C@H](O)[C@H]1O (some centres not stated) , which is > 100 µM (inactive)

Kindly note the recorded GI50 for "N#CC(C#N)=CNCCN1CCN(C=C(C#N)C#N)CC1" , which is > 100 µM (inactive)

Kindly note the recorded GI50 for CC1(C)CC2=C(Sc3ccccc3N2)C(=O)C1C(=O)C(=O)Nc1cc(Cl)ccc1Cl (configuration not stated) , which is > 100 µM (inactive)

Kindly note the recorded GI50 for "COc1cc(/C=C2\CCc3cc(OC)c(OC)cc3C2=O)cc(OC)c1" , which is 19.7 µM (inactive)

Kindly note the recorded GI50 for "CS(=O)(=O)OCCCSCCSCCCOS(C)(=O)=O" , which is > 100 µM (inactive)

Kindly note the recorded GI50 for "NN=C(CC(O)(C(F)(F)Cl)C(F)(F)Cl)CC(O)(C(F)(F)Cl)C(F)(F)Cl" , which is > 10 µM (inactive)

Kindly note the recorded GI50 for N#CC12CCC(O)C(CC1)C2=O (configuration not stated) , which is > 100 µM (inactive)

Kindly note the recorded GI50 for "COc1cc(/C=[N+](\[O-])c2ccccc2Cl)ccc1OC(=S)S" , which is 26.4 µM (inactive)

Kindly note the recorded GI50 for CC(NC(=O)C(Cc1ccccc1)NC(=O)C(Cc1ccccc1)NC(=O)OC(C)(C)C)C(=O)OCc1ccccc1 (stereo not drawn) (Boc-Phe-Phe-Ala-OBn; configuration not given here) , which is > 100 µM (inactive)

Kindly note the recorded GI50 for "C=CC[C@H](C)CCC(=O)N1[C@H]2CC3CC[C@@]2(CS1(=O)=O)C3(C)C" , which is 66.1 µM (inactive)

Kindly note the recorded GI50 for "COC/C=C\COC" , which is > 100 µM (inactive)

Kindly note the recorded GI50 for "COn1oc(=O)c2ccccc21" , which is > 100 µM (inactive)

Kindly note the recorded GI50 for "NCC(=O)Nc1ccc(S(=O)(=O)O)c2cc(S(=O)(=O)O)cc(S(=O)(=O)O)c12" , which is > 100 µM (inactive)

Kindly note the recorded GI50 for C=C[C@]1(C)CCC2=C(CCC3C2(C)CCC[C@@]3(C)COC(C)=O)C1 (some centres not stated) , which is 25.2 µM (inactive)

Kindly note the recorded GI50 for CC(C)=CC1C(COC(=O)c2ccccc2Cl)C1(C)C (configuration not stated) , which is 48.9 µM (inactive)

Kindly note the recorded GI50 for "O=C(O)/C(Cc1ccc([N+](=O)[O-])cc1)=N\O" , which is > 100 µM (inactive)

Kindly note the recorded GI50 for CC(=O)N1N=C(c2ccc3ccccc3c2O)CC1c1ccc(N(C)C)cc1 (configuration not stated) , which is > 100 µM (inactive)

Kindly note the recorded GI50 for "CCCCNC(=S)N/N=C/c1cccc(C)n1" , which is 37.8 µM (inactive)

Kindly note the recorded GI50 for Cc1ccc(NC(=O)CC(=O)N2N=C(N(CCC#N)c3cccc(C)c3)CC2c2ccccc2)cc1 (configuration not stated) , which is > 100 µM (inactive)

Kindly note the recorded GI50 for "Cn1c([C@H](C#N)c2ncccc2[N+](=O)[O-])nc2ccccc21" , which is > 100 µM (inactive)

From: ChEMBL document CHEMBL1201862
